assay: NCI Yeast Anticancer Drug Screen. Data for the sgs1 mgt1 strain (AID 161);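 also: 0% = growth of cultures given vehicle only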; settings: S. cerevisiae sgs1 mgt1 strain, at 50.0 µM
Compounds without any hit were thinned out: in the full panel of roughly 79,000, 15% have a hit. Calls of active or inactive are those of the source. Rule as the data show it: active = growth inhibition above about 70%; inactive = the rest.
Labels: yes (1) = active, no (0) = inactive

[[record]]
molecule = "CCN(Cc1cc(Cl)cc(C)c1O)Cc1c(O)ccc2ccccc12"
group_label = "yes (1)"

[[record]]
molecule = "C[C@H]1O[C@@H](C(C)(C)C)OC(=O)[C@@H]1C(OC(=O)c1ccccc1)c1cccc2ccccc12 (stereo not given in full)"
group_label = "no (0)"

[[record]]
molecule = "Cc1ccc(-n2cc(-c3ccc(Cl)cc3)c3c(NNC(=S)NCc4ccccc4)ncnc32)cc1"
group_label = "no (0)"

[[record]]
molecule = "O=c1[nH][nH]c(=O)c2c1ncn2Cc1ccccc1"
group_label = "no (0)"

[[record]]
molecule = "COc1ccc2c(c1)CCC1C2CCC2(C)C(=O)C(n3cnc4c(=S)nc[nH]c43)CC12 (stereo not given)"
group_label = "no (0)"

[[record]]
molecule = "CC1c2ccc3ccccc3c2C(=O)c2cccc(Cl)c21 (stereo not given)"
group_label = "no (0)"

[[record]]
molecule = "O=[N+]([O-])c1ccc(S(=O)(=O)/N=C/c2ccccc2)cc1"
group_label = "no (0)"

[[record]]
molecule = "Cc1c(-c2ccccc2)[nH]c2cc(Cl)ccc2c1=O"
group_label = "no (0)"

[[record]]
molecule = "O=C1CCNC(=O)N1"
group_label = "no (0)"

[[record]]
molecule = "COc1ccc(-c2c(C(C)=O)c(-c3ccccc3)n(C3OC(COC(C)=O)C(OC(C)=O)C(OC(C)=O)C3OC(C)=O)c(=S)c2C#N)cc1 (stereo not given)"
group_label = "no (0)"


----------
Parameter: growth inhibition. Scope: all listed entries.
test: NCI Yeast Anticancer Drug Screen. Data for the sgs1 mgt1 strain (AID 161);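 also: 0% = growth of cultures given vehicle only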; details: S. cerevisiae sgs1 mgt1 strain, at 50.0 µM, active compounds read high
This is part of a sample that, as a whole, favours compounds with a hit. Of some 79,000 tested, about 15% had one in any assay.
measured.parameter: growth inhibition (%)

[[record]]
compound = "O=C(Cc1ccccc1)NN1C(=O)/C(=C\\c2ccccc2)SC1=Nc1ccccc1"
unit_of_measure = "%"
numeric_value = 19.3

[[record]]
compound = "CC(N=C(N)N)C(=O)O (stereo not drawn)"
unit_of_measure = "%"
numeric_value = 0.15

[[record]]
compound = "N#Cc1ccc(OCCCCCOc2ccc([N+](=O)[O-])cc2)cc1"
unit_of_measure = "%"
numeric_value = 8.65

[[record]]
compound = "Cn1c(=O)c(C(=O)NC(=O)OCc2ccccc2)cn(CCSCCOC(=O)NCCCCCCNC(=O)OCCSCCn2cc(C(=O)NC(=O)OCc3ccccc3)c(=O)n(C)c2=O)c1=O"
unit_of_measure = "%"
numeric_value = -6.35

[[record]]
compound = "O=C(NO)Oc1cccc2ccccc12"
unit_of_measure = "%"
numeric_value = 0.25

[[record]]
compound = "CCC(C)NC(=O)/C=C/C(=O)NC(C)CC (stereo not drawn)"
unit_of_measure = "%"
numeric_value = -5.75

[[record]]
compound = "O=C(Nc1ccc([N+](=O)[O-])cc1Cl)OCCc1ccccn1"
unit_of_measure = "%"
numeric_value = 23.6

[[record]]
compound = "CC(=O)Nc1ccc(F)cc1"
unit_of_measure = "%"
numeric_value = -5.3

[[record]]
compound = "CC1(C)OC2OC(COC(=O)c3ccc([N+](=O)[O-])cc3)C3OC(C)(C)OC3C2O1 (stereo not drawn)"
unit_of_measure = "%"
numeric_value = -8.85

[[record]]
compound = "Cc1ccc(NC(=O)NCCCN2CCOCC2)cc1NC(=O)NCCCN1CCOCC1"
unit_of_measure = "%"
numeric_value = 3.85

[[record]]
compound = "CCc1cccc(C(=O)O)c1N"
unit_of_measure = "%"
numeric_value = 15.7

[[record]]
compound = "NNC(=O)CC(O)C(=O)NN (stereo not drawn)"
unit_of_measure = "%"
numeric_value = -1.85

[[record]]
compound = "Oc1cc(CN2COc3ccccc32)c(O)cc1CNC1CCCCC1"
unit_of_measure = "%"
numeric_value = -25.6


Source of measurements: PubChem BioAssay (NCI)
